Just for reference, paper PMC8597046 is where these values come from.

A collection of molecules and their measured tvKabs (rate constant of absorption)
Experiment: Nonlinear mixed effect (NLME) compartmental modeling of merged IV and oral serum concentrations
Conditions: population primary parameter, typical value, mean; MEHP after oral DEHP
The figure you give is taken to be in h⁻¹; do not add the unit.

Take a look at these entries with their results.
O=S(=O)(O)C(F)(F)C(F)(F)C(F)(F)C(F)(F)C(F)(F)C(F)(F)C(F)(F)C(F)(F)F 0.252
Clc1c(Cl)c(Cl)c(Cl)c(Cl)c1Cl 0.3488
Cl[C@H]1[C@H](Cl)[C@@H](Cl)[C@H](Cl)[C@@H](Cl)[C@@H]1Cl 0.0955

What the record says about ClC(Cl)=C(c1ccc(Cl)cc1)c1ccc(Cl)cc1 : tvKabs (rate constant of absorption) is 0.01994

What the record says about Brc1ccc(Oc2ccc(Br)cc2Br)c(Br)c1 : tvKabs (rate constant of absorption) is 0.02289

What the record says about O=C(O)C(F)(F)C(F)(F)C(F)(F)C(F)(F)C(F)(F)C(F)(F)C(F)(F)F : tvKabs (rate constant of absorption) is 1.408

----------
Experiment: TK assay, intravenous mixture dosing: serum concentrations and noncompartmental analysis (sparse data)
Settings: female, New Zealand white, rabbit, in vivo, iv, Serum concentration, rabbit 8, 167.92 h
RESULT TYPE: concentration at 167.92 h (nM)
The figure you give is taken to be in nM; do not add the unit.

Take a look at these entries with their results.
O=C(O)C(F)(F)C(F)(F)C(F)(F)C(F)(F)C(F)(F)C(F)(F)C(F)(F)F 4.3
Brc1ccc(Oc2ccc(Br)cc2Br)c(Br)c1 25

Now look at this entry.
What the record says about Cl[C@H]1[C@H](Cl)[C@@H](Cl)[C@H](Cl)[C@@H](Cl)[C@@H]1Cl : concentration at 167.92 h is 18

----------
A collection of compounds and their measured concentration at 24 h
Experiment: in vivo
Conditions: female, New Zealand white, rabbit, in vivo, iv, Serum concentration
The figure you give is taken to be in nM; do not add the unit.

Clc1c(Cl)c(Cl)c(Cl)c(Cl)c1Cl 8.2

Now look at this entry.
What the record says about ClC(Cl)=C(c1ccc(Cl)cc1)c1ccc(Cl)cc1 : concentration at 24 h is 65

----------
Assay: TK assay, intravenous mixture dosing: serum concentrations and noncompartmental analysis (sparse data)
Conditions: female, New Zealand white, rabbit, in vivo, iv, Serum concentration, rabbit 3, […]
RESULT TYPE: concentration at 24 h (nM)
The figure you give is taken to be in nM; do not add the unit.

COMPOUND	concentration at 24 h [nM]
Brc1ccc(Oc2ccc(Br)cc2Br)c(Br)c1 [BDE-47, 2,2′,4,4′-tetrabromodiphenyl ether]	130

What the record says about O=C(O)C(F)(F)C(F)(F)C(F)(F)C(F)(F)C(F)(F)C(F)(F)C(F)(F)F [PFOA, perfluorooctanoic acid] : concentration at 24 h is 290

What the record says about Cl[C@H]1[C@H](Cl)[C@@H](Cl)[C@H](Cl)[C@@H](Cl)[C@@H]1Cl [β-HCH, β-hexachlorocyclohexane] : concentration at 24 h is 76

----------
Assay: in vivo
Settings: female, New Zealand white, rabbit, in vivo, iv, Serum concentration
A collection of molecules and their measured concentration at 72.03 h
The figure you give is taken to be in nM; do not add the unit.

Clc1c(Cl)c(Cl)c(Cl)c(Cl)c1Cl 6.5

What the record says about ClC(Cl)=C(c1ccc(Cl)cc1)c1ccc(Cl)cc1 : concentration at 72.03 h is 27
